System Tested: human CRHR1 (Homo sapiens)
Construct: expressed in transfected cells
Sequence (P34998 24-415): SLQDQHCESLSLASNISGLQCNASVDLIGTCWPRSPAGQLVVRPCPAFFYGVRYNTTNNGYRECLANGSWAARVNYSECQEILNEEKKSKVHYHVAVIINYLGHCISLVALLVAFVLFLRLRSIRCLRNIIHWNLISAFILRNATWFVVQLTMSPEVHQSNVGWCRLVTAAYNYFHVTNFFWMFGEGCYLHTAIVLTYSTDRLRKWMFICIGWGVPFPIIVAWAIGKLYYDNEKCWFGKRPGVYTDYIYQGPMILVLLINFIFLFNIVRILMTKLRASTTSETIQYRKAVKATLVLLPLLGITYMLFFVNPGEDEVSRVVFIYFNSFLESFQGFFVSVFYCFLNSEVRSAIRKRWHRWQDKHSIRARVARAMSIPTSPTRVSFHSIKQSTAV
Assay Comment: Human CRHR1 cAMP assay (HTRF) in HEK293 cells stably expressing human CRHR1
Type: cell-based
Test Settings: HEK293 cells overexpressing human CRHR1; relative EC50, maximum 66 nM human UCN1; mean ± SE; read-out: hCRHR1 cAMP EC50 (pM, ± SE)
*1 amine or outer side, *2 acyl side, *3 side chain or, on linkers, in order; H or OH if unused. Side-chain parts run from the residue outwards. [ ]: non-standard residue; d: D form. The star is where a group is joined. C20 diacid = O=C(O)CCCCCCCCCCCCCCCCCCC(=O)*; C18 diacid = O=C(O)CCCCCCCCCCCCCCCCC(=O)*; γGlu = O=C(O)[C@H](CCC(=O)[*:2])N[*:1]; εLys = N[C@@H](CCCCN[*:1])C(=O)[*:2]; pGlu = O=C1CC[C@@H](C(=O)O)N1; αMeL = CC(C)C[C@](C)(N)C(=O)O; AEEA = NCCOCCOCC(=O)O; Aib = CC(C)(N)C(=O)O; βAla = NCCC(=O)O
Experimental Readout: EC50

Task: For γGlu-GPSIVTS[αMeL]D[dV]PI[Aib][αMeL]LQIKLEQERAEKARQQAK([AEEA-AEEA-γGlu-C20 diacid])ENTEILAQV-NH2 [SEQ ID NO: 45] , what is its reported EC50?
Result: 3.7e+06 pM

Give EC50 for each listed item.
1. Ac-GSPSIVTS[αMeL]DVPT[Aib][αMeL]LQKILEQERAEKARQQAK([γGlu-AEEA-εLys-C20 diacid])EAAEILAQV-NH2 [SEQ ID NO: 1]
2. Ac-GSPSIVTS[αMeL]DVPT[Aib][αMeL]LQKILEQERAEKARQQAK([Gly-βAla-βAla-βAla-γGlu-C20 diacid])EAAEILAQV-NH2 [SEQ ID NO: 7]
3. Ac-GSPSIVTS[αMeL]DVPT[Aib][αMeL]LQKILEQERAEKARQQAK([βAla-Ser-βAla-Ser-γGlu-C20 diacid])EAAEILAQV-NH2 [SEQ ID NO: 10]
4. [pGlu]GSPSGIVTS[αMeL]DVPT[Aib][αMeL]LQKILEQERAEKARQQAK([γGlu-AEEA-εLys-C18 diacid])EAAEILAQV-NH2 [SEQ ID NO: 24]
5. Ac-GSPSIVTS[αMeL]DVPT[Aib][αMeL]LQKILEQERAEKARQQAK([γGlu-εLys-AEEA-εLys-C20 diacid])EAAEILAQV-NH2 [SEQ ID NO: 19]

Result:
> 1e+07 pM
> 1e+07 pM
> 1e+07 pM
> 1e+07 pM
> 1e+07 pM
